TARGET_OR_SYSTEM: HIV-1 Env of isolate REJ04541 (HIV-1)
MEASUREMENT_NOTES: cell-based or functional assay
EXPERIMENTAL_READOUT: IC50, pseudovirus neutralization (TZM-bl) (µg/mL)
One number for each entry, in µg/mL.

Provide reported IC50, pseudovirus neutralization (TZM-bl) for each item, in the same order as listed.
1. 1489_I13 (PG16) (TCN-120) (antibody, V domains shown) VH: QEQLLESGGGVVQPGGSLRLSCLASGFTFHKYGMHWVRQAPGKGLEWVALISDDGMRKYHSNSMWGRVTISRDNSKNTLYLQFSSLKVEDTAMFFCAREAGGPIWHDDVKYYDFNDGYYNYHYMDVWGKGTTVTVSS VL: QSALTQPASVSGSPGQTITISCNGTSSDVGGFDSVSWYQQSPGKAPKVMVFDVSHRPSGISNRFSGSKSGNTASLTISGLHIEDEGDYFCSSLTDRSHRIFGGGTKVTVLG
2. 1469_M23 (PG16) (TCN-118) (antibody, V domains shown) VH: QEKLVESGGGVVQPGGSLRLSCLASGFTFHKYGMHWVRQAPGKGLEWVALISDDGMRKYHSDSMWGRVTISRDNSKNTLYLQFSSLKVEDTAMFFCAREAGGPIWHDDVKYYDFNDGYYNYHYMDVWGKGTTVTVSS VL: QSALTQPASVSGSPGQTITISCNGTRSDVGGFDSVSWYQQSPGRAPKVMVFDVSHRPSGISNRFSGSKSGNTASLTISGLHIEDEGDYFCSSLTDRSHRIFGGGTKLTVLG
3. 1503_H05 (PG16) (TCN-119) (antibody, V domains shown) VH: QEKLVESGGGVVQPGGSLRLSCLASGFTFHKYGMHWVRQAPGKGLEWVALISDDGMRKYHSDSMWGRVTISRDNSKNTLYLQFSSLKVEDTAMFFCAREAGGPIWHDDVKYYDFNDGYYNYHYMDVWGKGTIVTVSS VL: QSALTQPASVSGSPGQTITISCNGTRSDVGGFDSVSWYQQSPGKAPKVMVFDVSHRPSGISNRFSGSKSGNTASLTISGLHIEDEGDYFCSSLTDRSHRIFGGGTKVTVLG

Reply:
1. 0.34
2. 0.39
3. 0.22
